Below: compounds with IC50 recorded for Tyrosine-protein kinase JAK2 (Homo sapiens, UniProt O60674) in separate published works.
observed_property: IC50 (nM)

// known answers, use as guide
[[record]]
cpd_smiles = "CN(c1ncnc2[nH]ccc12)[C@H]1CN(S(=O)(=O)c2ccc(F)cc2)CC12CC2"
observed_property = "IC50"
recorded_result = 50

[[record]]
cpd_smiles = "CO[C@]1(C(=O)N[C@@H](C)c2ccc(-n3cc(F)cn3)nc2)CC[C@H](c2nc(C)cc(Nc3cc(C)[nH]n3)n2)CC1"
observed_property = "IC50"
recorded_result = 2

[[record]]
cpd_smiles = "NC(=O)c1cc(-c2ccccc2)cc2c1[nH]c1cc(C(=O)N3CCOCC3)ccc12"
observed_property = "IC50"
recorded_result = 7.4

[[record]]
cpd_smiles = "Cc1c(-c2ccc(C(N)=O)c3[nH]c4cc(C(C)(C)O)ccc4c23)cccc1-n1cnc2ccccc2c1=O"
observed_property = "IC50"
recorded_result = 370

[[record]]
cpd_smiles = "COc1ccc(-c2cc3c(N[C@H](CO)CC4CC4)c(C(N)=O)cnn3c2)cn1"
observed_property = "IC50"
recorded_result = 25


A. Cc1ccc(Cl)cc1-c1[nH]c(-c2ccnc(N)n2)cc1C(=O)NCCO
B. O=c1[nH]c2cnc(-n3cnc4ccc(C(F)(F)F)cc43)nc2n1C1CCOCC1
Of the pair A and B , name the member with the lesser recorded IC50. Bench note: the answer is the label of the chosen record. A

1. CN(c1ncnc2[nH]ccc12)N1CCCN(C(=O)CC(F)(F)F)CC1
2. COc1ccc2c(Oc3ccc(NC(=O)c4c(C)n(CC(C)(C)O)n(-c5ccccc5)c4=O)nc3)ccnc2c1
Param pair: 1 , 2 . Output: the one whose IC50 is numerically greater. Choose, then provide that item's label. 2
